Test system: HepG2
ASSAY_OVERVIEW: Induction of fatty acid oxidation in human HepG2 cells after 48 hrs
Assay type: functional, cell-based
TEST_PARAMETERS: Homo sapiens, HepG2, 48 h
MEASUREMENT_LABEL: EC50 (µM)
The answer is to be given in µM; state only the numeric part.

Task: I would be grateful if you could share the reported EC50 for `CC(=O)N1CCC(C(=O)N2CCC(N3CCN(C(=O)c4cc(-c5ccc(C)cc5)nc(-c5ccc(C)cc5)c4)CC3)CC2)CC1` .
Output: 0.58

---

ASSAY_OVERVIEW: AUC in Sprague-Dawley rat at 10 mg/kg, po
Assay type: ADME, organism-based
Parameters: dose 10 mg/kg, route oral
TEST_PARAMETERS: plasma
MEASUREMENT_LABEL: AUC (ng·h/mL)
The answer is to be given in ng·h/mL; state only the numeric part.

Task: I would be grateful if you could share the reported AUC for `CC(=O)N1CCC(C(=O)N2CCC(N3CCN(C(=O)c4cc(-c5ccc(C)cc5)nc(-c5ccc(C)cc5)c4)CC3)CC2)CC1` .
Output: 1000
